Documented Ret across a set of molecules
Species: Rattus norvegicus
Assay Info: Open TG-GATES - Regimen: Single
Format: toxicity, organism-based, Sprague-Dawley
Set-up: regimen Single, gender Male, age 6 weeks
Measurement Context: in vivo, po, 0 mg/kg, 3 h, tissue Blood, route gavage, dose level Control
Measured Attribute: Ret

> print(dat)
                                   molecule  recorded.measurement
1   CCc1oc2ccccc2c1C(=O)c1cc(Br)c(O)c(Br)c1                  7.9%
2  OCCOCCN1CCN(C(c2ccccc2)c2ccc(Cl)cc2)CC1 (stereo not given) [HYDROXYZINE]                  8.7%
3  CC1=C(CC(=O)O)c2cc(F)ccc2/C1=C\c1ccc([S+](C)[O-])cc1 (stereo not given)                  7.9%
4  CC[C@H]1[C@@H]2C[C@H]3[C@@H]4N(C)c5ccccc5[C@]45C[C@@H]([C@@H]2[C@H]5O)N3[C@@H]1O                 12.5%
5                         CN(C)C(=N)N=C(N)N                 10.1%

Every entry's value here was drawn from ChEMBL document CHEMBL3885861.
